meta.source: ChEMBL document CHEMBL2021801

measurement-description: Volume of distribution in CD1 (ICR) mouse at 3 mg/kg, iv
Format: ADME, organism-based
Set-up: dose 3 mg/kg, route intravenous
assay-conditions: in vivo
measured-attribute: Vd (L/kg)
Give the value, in units of L/kg, as a plain number.

These solved cases illustrate the format of a correct answer.
Kindly note the recorded Vd for CCCn1cc(-c2cnc(N)c3c(-c4ccc(NC(=O)Nc5cccc(F)c5)cc4)csc23)cn1 , which is 1.2

Vd for Cc1cccc(NC(=O)Nc2ccc(-c3csc4ccnc(N)c34)cc2)c1 is 1.7

Vd reading for Cc1cccc(NC(=O)Nc2ccc(-c3csc4c(-c5cnn(C)c5)cnc(N)c34)cc2)c1 : 2.3

***
The recorded Vd for Cn1cc(-c2cnc(N)c3c(-c4ccc(NC(=O)Nc5cccc(F)c5)cc4)csc23)cn1 is 0.9

Reported Vd ( C[C@@H](O)Cn1cc(-c2cnc(N)c3c(-c4ccc(NC(=O)Nc5cccc(F)c5)cc4)csc23)cn1 ) = 1.2

Briefly, Vd measured for COc1ccc(NC(=O)Nc2ccc(-c3csc4c(-c5cnn(C)c5)cnc(N)c34)cc2)cc1 : 1.5

Consider Nc1ncc(-c2cnn(CCO)c2)c2scc(-c3ccc(NC(=O)Nc4cccc(F)c4)cc3)c12 . Its measured Vd is 1.7

====

measurement-description: Half life in dog
Type: ADME, organism-based, Canis lupus familiaris
assay-conditions: in vivo
measured-attribute: half-life
Number first, unit second.

half-life reading for Nc1ncc(-c2cnn(CCO)c2)c2scc(-c3ccc(NC(=O)Nc4cccc(F)c4)cc3)c12 : 4 h

====

study-target: UniProtKB Q12809
Sequence (Q12809 whole entry): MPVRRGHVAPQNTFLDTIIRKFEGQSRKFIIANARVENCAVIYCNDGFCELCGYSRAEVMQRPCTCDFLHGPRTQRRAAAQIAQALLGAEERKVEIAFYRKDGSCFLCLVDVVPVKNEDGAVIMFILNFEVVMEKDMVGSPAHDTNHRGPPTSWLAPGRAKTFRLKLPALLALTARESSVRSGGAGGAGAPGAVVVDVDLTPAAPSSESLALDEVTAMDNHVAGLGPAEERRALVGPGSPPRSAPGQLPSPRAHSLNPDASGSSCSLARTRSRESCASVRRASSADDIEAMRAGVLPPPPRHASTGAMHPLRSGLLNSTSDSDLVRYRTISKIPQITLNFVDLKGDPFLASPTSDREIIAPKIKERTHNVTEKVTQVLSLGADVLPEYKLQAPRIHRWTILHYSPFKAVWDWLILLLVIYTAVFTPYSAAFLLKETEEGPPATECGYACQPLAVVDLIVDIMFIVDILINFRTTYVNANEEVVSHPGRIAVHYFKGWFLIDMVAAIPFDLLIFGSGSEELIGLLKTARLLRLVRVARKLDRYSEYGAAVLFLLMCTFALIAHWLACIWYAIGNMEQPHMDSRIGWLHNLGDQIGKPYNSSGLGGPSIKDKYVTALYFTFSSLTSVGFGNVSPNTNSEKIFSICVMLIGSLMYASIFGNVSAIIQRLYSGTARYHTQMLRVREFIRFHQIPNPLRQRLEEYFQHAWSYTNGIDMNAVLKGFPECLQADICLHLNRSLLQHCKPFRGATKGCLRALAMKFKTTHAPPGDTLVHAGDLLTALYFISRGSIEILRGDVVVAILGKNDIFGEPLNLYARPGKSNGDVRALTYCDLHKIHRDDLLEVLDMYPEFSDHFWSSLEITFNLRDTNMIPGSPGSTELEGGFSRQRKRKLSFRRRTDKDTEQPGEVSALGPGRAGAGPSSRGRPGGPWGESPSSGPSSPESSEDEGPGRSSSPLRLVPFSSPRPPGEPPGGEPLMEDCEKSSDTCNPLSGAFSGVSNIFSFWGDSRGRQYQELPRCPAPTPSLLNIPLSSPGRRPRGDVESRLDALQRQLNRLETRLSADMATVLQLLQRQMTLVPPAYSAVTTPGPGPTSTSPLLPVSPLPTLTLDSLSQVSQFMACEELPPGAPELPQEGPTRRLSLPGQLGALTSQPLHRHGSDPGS
measurement-description: Inhibition of human Erg by patch clamp assay in absence of plasma protein
measured-attribute: IC50 (nM)
# unit: nM | format: bare number

IC50 reading for Nc1ncc(-c2cnn(CCO)c2)c2scc(-c3ccc(NC(=O)Nc4cccc(F)c4)cc3)c12 : 1000

====

measurement-description: Volume of distribution at steady state in dog
Type: ADME, organism-based, Canis lupus familiaris
assay-conditions: in vivo, read-out: Vdss
measured-attribute: Vd
For clarity, give the value followed by its unit.

Vd measured on Nc1ncc(-c2cnn(CCO)c2)c2scc(-c3ccc(NC(=O)Nc4cccc(F)c4)cc3)c12 [ILORASERTIB] = 0.4 L/kg

====

measurement-description: Volume of distribution at steady state in rat
Format: ADME, organism-based
assay-conditions: in vivo, read-out: Vdss
measured-attribute: Vd (L/kg)
API: value field is a number in L/kg; no unit string.

Field Vd (entry Nc1ncc(-c2cnn(CCO)c2)c2scc(-c3ccc(NC(=O)Nc4cccc(F)c4)cc3)c12 ) reads 0.4

====

measurement-description: Half life in rat
Type: ADME, organism-based
assay-conditions: in vivo
measured-attribute: half-life (h)
Field: numeric (h). Do not append units.

Per the records, this compound ( Nc1ncc(-c2cnn(CCO)c2)c2scc(-c3ccc(NC(=O)Nc4cccc(F)c4)cc3)c12 ) has half-life equal to 4

====

Record set of pIC50 for target or system UniProt:Q96GD4.
Remember, pIC50 is on a log scale: it is -log10 of the molar concentration.

Bench note, UniProt:Q96GD4: entry COc1ccc(NC(=O)Nc2ccc(-c3csc4c(-c5cnn(C)c5)cnc(N)c34)cc2)cc1 , its pIC50 = 6.94

I looked up Cc1cccc(NC(=O)Nc2ccc(-c3csc4c(-c5cc[nH]c5)cnc(N)c34)cc2)c1 and its pIC50 for UniProt:Q96GD4 was 7.17

Field pIC50 (system: UniProt:Q96GD4) for entry Cn1cc(-c2cnc(N)c3c(-c4ccc(NC(=O)Nc5cccc(Cl)c5)cc4)csc23)cn1 = 7.15

Continuing:
Lab entry: UniProt:Q96GD4 assay, molecule COc1ccccc1NC(=O)Nc1ccc(-c2csc3c(-c4cnn(C)c4)cnc(N)c23)cc1 , pIC50 = 7.28

Kindly note: UniProt:Q96GD4, Cc1cccc(NC(=O)Nc2ccc(-c3csc4c(C#CCN(C)C)cnc(N)c34)cc2)c1 , pIC50 value reported: 7.96

// molecule Cn1cc(-c2cnc(N)c3c(-c4ccc(NC(=O)Nc5ccc(OC(F)(F)F)cc5)cc4)csc23)cn1 , assay UniProt:Q96GD4, pIC50 value: 7.77

Entry Cn1cc(-c2cnc(N)c3c(-c4ccc(NC(=O)Nc5ccccc5)cc4)csc23)cn1 , UniProt:Q96GD4 data, pIC50 value: 8.22

Record CS(=O)(=O)CCn1cc(-c2cnc(N)c3c(-c4ccc(NC(=O)Nc5cccc(F)c5)cc4)csc23)cn1 has UniProt:Q96GD4 pIC50 equal to 7.96

The reported UniProt:Q96GD4 pIC50 of CN1CCC(n2cc(-c3cnc(N)c4c(-c5ccc(NC(=O)Nc6cccc(F)c6)cc5)csc34)cn2)C1=O (centres undefined) is 8.30

Tested system UniProt:Q96GD4; pIC50 recorded for Cc1ccc(NC(=O)Nc2ccc(-c3csc4c(-c5cnn(C)c5)cnc(N)c34)cc2)cc1 was 7.30

Lab entry: UniProt:Q96GD4 assay, molecule Cc1cccc(NC(=O)Nc2ccc(-c3csc4c(-c5cc[nH]n5)cnc(N)c34)cc2)c1 , pIC50 = 7.18

Known value: UniProt:Q96GD4 pIC50 of the molecule Nc1ncc(-c2cnn(CCN3CCCCC3)c2)c2scc(-c3ccc(NC(=O)Nc4cccc(F)c4)cc3)c12 equals 8.10

The molecule CNC(=O)/C=C/c1cnc(N)c2c(-c3ccc(NC(=O)Nc4cccc(C)c4)cc3)csc12 , when measured on UniProt:Q96GD4, yielded pIC50 of 7.10

The value of pIC50 recorded for Cc1cccc(NC(=O)Nc2ccc(-c3csc4c(-c5ccsc5)cnc(N)c34)cc2)c1 when tested on UniProt:Q96GD4 reads 6.75

====

study-target: Aurora kinase B (Homo sapiens)
Sequence (Q96GD4 whole entry): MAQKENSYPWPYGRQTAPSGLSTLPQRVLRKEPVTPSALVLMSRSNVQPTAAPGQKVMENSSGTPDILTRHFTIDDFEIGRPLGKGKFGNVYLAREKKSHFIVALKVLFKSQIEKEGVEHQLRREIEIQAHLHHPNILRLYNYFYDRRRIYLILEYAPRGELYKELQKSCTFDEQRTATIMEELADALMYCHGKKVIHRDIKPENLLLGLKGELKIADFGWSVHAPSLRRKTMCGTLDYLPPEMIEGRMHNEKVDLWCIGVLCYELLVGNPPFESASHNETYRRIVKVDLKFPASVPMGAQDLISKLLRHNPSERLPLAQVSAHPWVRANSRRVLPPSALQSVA
assay-conditions: NCI-H1229
measured-attribute: EC15 (nM)
Report the value in nM with no unit label.

Value of EC15 reported for the compound Nc1ncc(-c2cnn(CCO)c2)c2scc(-c3ccc(NC(=O)Nc4cccc(F)c4)cc3)c12 is 12

---
response.value for Cn1cc(-c2cnc(N)c3c(-c4ccc(NC(=O)Nc5cccc(C(N)=O)c5)cc4)csc23)cn1 (field: EC15) = 413

Cn1cc(-c2cnc(N)c3c(-c4ccc(NC(=O)Nc5ccc(OC(F)(F)F)cc5)cc4)csc23)cn1 has a reported EC15 of 12

For reference, reported EC15 for Cn1cc(-c2cnc(N)c3c(-c4ccc(NC(=O)Nc5ccccc5)cc4)csc23)cn1 stands at 9

Reported EC15 of Cc1ccc(NC(=O)Nc2ccc(-c3csc4c(-c5cnn(C)c5)cnc(N)c34)cc2)cc1 : 64

====

study-target: Cytochrome P450 3A4 (Homo sapiens)
Sequence (P08684 whole entry): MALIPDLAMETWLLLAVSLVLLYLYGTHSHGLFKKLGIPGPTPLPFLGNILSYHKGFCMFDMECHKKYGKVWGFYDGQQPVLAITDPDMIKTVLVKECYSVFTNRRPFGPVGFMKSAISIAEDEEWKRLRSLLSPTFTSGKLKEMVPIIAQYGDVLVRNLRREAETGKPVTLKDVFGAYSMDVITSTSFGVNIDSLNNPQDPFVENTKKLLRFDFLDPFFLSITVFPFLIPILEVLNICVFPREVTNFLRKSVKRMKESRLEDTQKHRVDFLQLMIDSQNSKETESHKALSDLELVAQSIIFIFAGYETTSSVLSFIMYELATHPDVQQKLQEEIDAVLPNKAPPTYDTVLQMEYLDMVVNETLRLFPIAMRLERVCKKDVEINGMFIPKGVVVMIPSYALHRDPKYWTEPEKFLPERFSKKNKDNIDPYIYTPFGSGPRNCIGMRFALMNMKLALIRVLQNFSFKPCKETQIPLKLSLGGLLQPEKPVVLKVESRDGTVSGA
measurement-description: Inhibition of CYP3A4
Assay type: ADME
measured-attribute: IC50 (µM)
Give the value, in units of µM, as a plain number.

Given the molecule Cn1cc(-c2cnc(N)c3c(-c4ccc(NC(=O)Nc5cccc(F)c5)cc4)csc23)cn1 and test system Cytochrome P450 3A4 (Homo sapiens), the measured IC50 is 7.9

====

measurement-description: Plasma clearance in mouse
Format: ADME, organism-based
measured-attribute: clearance

Form field clearance, entry Nc1ncc(-c2cnn(CCO)c2)c2scc(-c3ccc(NC(=O)Nc4cccc(F)c4)cc3)c12 [ILORASERTIB] : < 5 mL/min/kg

====

study-target: Vascular endothelial growth factor receptor 2 (Homo sapiens, UniProt P35968)
Sequence (P35968 whole entry): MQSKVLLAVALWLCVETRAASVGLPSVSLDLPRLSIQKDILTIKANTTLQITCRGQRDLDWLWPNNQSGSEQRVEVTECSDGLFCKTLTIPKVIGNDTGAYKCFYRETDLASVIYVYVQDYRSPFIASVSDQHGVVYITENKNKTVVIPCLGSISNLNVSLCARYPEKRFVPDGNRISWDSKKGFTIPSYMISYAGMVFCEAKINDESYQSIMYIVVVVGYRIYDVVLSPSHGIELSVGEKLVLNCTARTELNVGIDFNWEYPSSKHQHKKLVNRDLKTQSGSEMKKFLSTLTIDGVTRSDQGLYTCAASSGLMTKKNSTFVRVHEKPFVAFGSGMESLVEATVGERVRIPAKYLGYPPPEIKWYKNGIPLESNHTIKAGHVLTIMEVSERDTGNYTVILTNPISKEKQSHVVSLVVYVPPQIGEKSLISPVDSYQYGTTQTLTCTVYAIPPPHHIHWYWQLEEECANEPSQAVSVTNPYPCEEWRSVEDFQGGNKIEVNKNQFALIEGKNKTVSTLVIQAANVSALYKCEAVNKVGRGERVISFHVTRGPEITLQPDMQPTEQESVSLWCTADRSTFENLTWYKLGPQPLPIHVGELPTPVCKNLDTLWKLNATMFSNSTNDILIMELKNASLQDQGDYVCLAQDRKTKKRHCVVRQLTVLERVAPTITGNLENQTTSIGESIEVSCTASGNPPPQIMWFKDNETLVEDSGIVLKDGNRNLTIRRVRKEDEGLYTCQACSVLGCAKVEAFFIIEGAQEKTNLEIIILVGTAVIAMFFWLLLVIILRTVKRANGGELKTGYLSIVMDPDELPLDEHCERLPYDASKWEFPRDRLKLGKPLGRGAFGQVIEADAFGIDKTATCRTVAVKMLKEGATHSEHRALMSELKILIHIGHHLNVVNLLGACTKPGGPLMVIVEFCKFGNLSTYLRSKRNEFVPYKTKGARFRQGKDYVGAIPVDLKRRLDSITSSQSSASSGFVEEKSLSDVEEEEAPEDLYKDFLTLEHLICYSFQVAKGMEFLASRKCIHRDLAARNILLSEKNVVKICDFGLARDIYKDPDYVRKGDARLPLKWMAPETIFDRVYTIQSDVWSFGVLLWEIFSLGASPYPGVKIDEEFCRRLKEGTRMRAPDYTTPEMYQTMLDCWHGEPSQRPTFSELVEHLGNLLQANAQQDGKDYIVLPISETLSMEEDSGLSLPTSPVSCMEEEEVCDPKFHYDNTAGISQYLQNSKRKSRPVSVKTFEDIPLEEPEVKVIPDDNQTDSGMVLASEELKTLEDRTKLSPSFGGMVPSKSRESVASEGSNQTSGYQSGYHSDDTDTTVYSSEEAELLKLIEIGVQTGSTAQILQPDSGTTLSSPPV
measurement-description: Inhibition of human KDR phosphorylation expressed in mouse NIH3T3 cells
Assay type: cell-based
pIC50: −log10 of the molar value.
Assign true (1) to entries whose pIC50 meets or exceeds 8; assign false (0) to the rest.

Examples with answers:
Hi team, for Cc1cccc(NC(=O)Nc2ccc(-c3csc4c(-c5cc[nH]n5)cnc(N)c34)cc2)c1 , is the recorded pIC50 at or above 8?
true (1)

Evaluate Cc1cccc(NC(=O)Nc2ccc(-c3csc4c(-c5ccsc5)cnc(N)c34)cc2)c1 : pIC50 at minimum 8?
false (0)

# check: pIC50 of CNC(=O)c1cnc(N)c2c(-c3ccc(NC(=O)Nc4cccc(C)c4)cc3)csc12 is greater than or equal to 8
true (1)

Hi team, for Cc1cccc(NC(=O)Nc2ccc(-c3csc4c(-c5cc[nH]c5)cnc(N)c34)cc2)c1 , is the recorded pIC50 at or above 8?
true (1)

// switching to the query molecule
Tell me whether pIC50 is at least 8 here: CNC(=O)/C=C/c1cnc(N)c2c(-c3ccc(NC(=O)Nc4cccc(C)c4)cc3)csc12
false (0)

====

measurement-description: Half life in CD1 (ICR) mouse at 3 mg/kg, iv
Type: ADME, organism-based
Parameters: dose 3 mg/kg, route intravenous
assay-conditions: in vivo
Each record is given met if its reported half-life is strictly below 2 h. Records at or above 2 h are given not met.

# TODO verify half-life < 2 h strictly for this compound: C[C@@H](O)Cn1cc(-c2cnc(N)c3c(-c4ccc(NC(=O)Nc5cccc(F)c5)cc4)csc23)cn1
not met

Determine whether this compound shows half-life lower than 2 h (ties excluded): CCCn1cc(-c2cnc(N)c3c(-c4ccc(NC(=O)Nc5cccc(F)c5)cc4)csc23)cn1
met

Consider the compound Cc1cccc(NC(=O)Nc2ccc(-c3csc4c(-c5cnn(C)c5)cnc(N)c34)cc2)c1 . Is its half-life strictly less than 2 h?
met

Does this compound meet the criterion half-life < 2 h? Nc1ncc(-c2cnn(CCO)c2)c2scc(-c3ccc(NC(=O)Nc4cccc(F)c4)cc3)c12
not met

Below 2 h on half-life? Entry Cc1cccc(NC(=O)Nc2ccc(-c3csc4ccnc(N)c34)cc2)c1
met

In plain terms, does Cn1cc(-c2cnc(N)c3c(-c4ccc(NC(=O)Nc5cccc(F)c5)cc4)csc23)cn1 come in under 2 h for half-life?
not met

***
Regarding COc1ccc(NC(=O)Nc2ccc(-c3csc4c(-c5cnn(C)c5)cnc(N)c34)cc2)cc1 , kindly confirm whether its half-life is beneath 2 h.
met
